- target.desc: human IGF-1R on FDCP-2 cells (human, UniProt P08069 31-1367)
- assay.remarks: cell-based or functional assay
Positions of bridges follow the written chain, without caps; N, C: chain ends. No end group written: not given here.
measured.property: ED50 Growth (nM)
The figure you give is taken to be in nM; do not add the unit.

Sample WLDQERAWLWCEISGRGCLSGGSGGSGGSGGSGSLDESFYDWFERQLGKK (not fully specified (bridges); cysteine pairing not given here, Site 2-Site 1 dimer peptide, recombinant; also called D815-RP9 (12 aa linker); D815-12-RP9) [D815-12aa-RP9] ; ED50 Growth observed: 10000

ED50 Growth reported for this binder WLDQERAWLWCEISGRGCLS (disulfide 11-18 (inferred), Recombinant form) [recombinant peptide surrogate D815 (rD815)] : 500

Memo: WLDQERAWLWCEISGRGCLSGGSGGSGSLDESFYDWFERQLGKK (Site 2-Site 1 dimer peptide, recombinant; also called D815-RP9 (6 aa linker); D815-6-RP9) [D815-6aa-RP9] , reported ED50 Growth: 50

binder GIISQSCPESFYDWFAGQVSDPWWCW (Recombinant form) [recombinant peptide surrogate G33 (rG33)] , ED50 Growth observed: 500

Value source: patent US20030236190A1
